ASSAY_DETAILS: folding enthalpy; higher = less favourable; fluorescence melt of hairpins on a sequencing array, two-state fit
PROTOCOL_CONDITIONS: sodium 0.088 M
Threshold rule: folding enthalpy greater than or equal to -30 kcal/mol is True; below that, False.

RESIDUE_STRING: GCGCCGCGAAAGCAGTGC ((.(.((....)).).))
CLASSIFICATION: True
//
RESIDUE_STRING: GAAGGGGGAAACCCCCTC ((.((((....)))).))
CLASSIFICATION: True
//
RESIDUE_STRING: GCATTTGGAAACAAGTGC (((.(((....))).)))
CLASSIFICATION: True
//
RESIDUE_STRING: GCATCCTCGAAAGAGTGC (((..(((....))))))
CLASSIFICATION: True
//
RESIDUE_STRING: GGAGTGCCGAAAGGCTCC (((..(((....))))))
CLASSIFICATION: True
//
RESIDUE_STRING: GCCTCACGAAAGTGGGC (((.(((....))))))
CLASSIFICATION: False
//
RESIDUE_STRING: GCGAAGGTTCGC ((((....))))
CLASSIFICATION: True
//
RESIDUE_STRING: GTGCAGCCGAAAGGCCAC (((..(((....))))))
CLASSIFICATION: True
//
RESIDUE_STRING: GGAAGCGGAAACGTTTCC ((((.((....)).))))
CLASSIFICATION: False
//
RESIDUE_STRING: GTGGTCGAAAGACACAC ((((((....))).)))
CLASSIFICATION: True
//
RESIDUE_STRING: GATCAAAGGCTTGATC ((((((....))))))
CLASSIFICATION: False

---

ASSAY_DETAILS: melting temperature; fluorescence melt of hairpins on a sequencing array, two-state fit, raised by 9.35 °C to match UV melts
PROTOCOL_CONDITIONS: sodium 0.088 M
Threshold check on Tm: strictly below 50 °C is Y; on or above 50 °C is N.

RESIDUE_STRING: GGTCGGCGAAAGCCTACC (((.(((....))).)))
CLASSIFICATION: N
//
RESIDUE_STRING: GTGCGGGGAAACTCGCGC (.(((.(....).))).)
CLASSIFICATION: N
//
RESIDUE_STRING: GGTCAGCGAAAGCTCACC (((.(((....))).)))
CLASSIFICATION: Y
//
RESIDUE_STRING: GACGTGCGAAAGCATGTC (((.(((....))).)))
CLASSIFICATION: N
//
RESIDUE_STRING: GTTGATCGAAAGATAAC (((.(((....))))))
CLASSIFICATION: Y
//
RESIDUE_STRING: GATCCTCTCGAGGATC ((((((....))))))
CLASSIFICATION: N
//
RESIDUE_STRING: GCGGGACCCGC ((((...))))
CLASSIFICATION: N
//
RESIDUE_STRING: GATCCAAAGCTGGATC ((((((....))))))
CLASSIFICATION: Y
//
RESIDUE_STRING: GATCTCTGCTGAGATC ((((((....))))))
CLASSIFICATION: N
//
RESIDUE_STRING: GCACCGCGAAAGCACTGC (((..((....))..)))
CLASSIFICATION: Y
//
RESIDUE_STRING: GCAAGGACGAAAGTCTGC (((..(((....))))))
CLASSIFICATION: Y
